Reported Phage binding ELISA signal, Anti-PSMA Fab by item:
# measured-target: T1, PSMA Fab (biotinylated (site not stated))
# T1 construct: Biotinylated PSMA Fab captured on neutravidin coated plates in the phage ELISA; also called Anti-PSMA Fab; 006 PSMA Fab
# assay-protocol: phage ELISA, biotinylated anti-PSMA Fab on neutravidin plate, anti-M13 HRP detection
Where no end group is shown, it is not given here.
API doc: respond with a numeric literal and nothing else, no unit.

Entry VQSLCVPYWMCTGF (cysteine pairing not given here; also: peptide displayed as fusion to phage pIII, Clonal phage of the peptide-180 optimisation library, tested as crude phage supernatant; not shown: bacteriophage pIII coat protein to which the peptide is fused for display) [Phage-2962] : reported Phage binding ELISA signal, Anti-PSMA Fab = ? 2.26

Could you do the same for NLPLCKPAWMCKWL (cysteine pairing not given here; also: peptide displayed as fusion to phage pIII, Clonal phage of the peptide-180 optimisation library, tested as crude phage supernatant; not shown: bacteriophage pIII coat protein to which the peptide is fused for display) [Phage-2963] , please? 2.26

Try GVPMCVPDWMCHGL (cysteine pairing not given here; also: peptide displayed as fusion to phage pIII, Clonal phage of the peptide-180 optimisation library, tested as crude phage supernatant; not shown: bacteriophage pIII coat protein to which the peptide is fused for display) [Phage-2975] next. 2.24

Entry LDIWCVPAWMCHGF (cysteine pairing not given here; also: peptide displayed as fusion to phage pIII, Clonal phage of the peptide-180 optimisation library, tested as crude phage supernatant; not shown: bacteriophage pIII coat protein to which the peptide is fused for display) [Phage-2969] please 2.26

Try this binder too: VGAACIPDWMCVGF (cysteine pairing not given here; also: peptide displayed as fusion to phage pIII, Clonal phage of the peptide-180 optimisation library, tested as crude phage supernatant; not shown: bacteriophage pIII coat protein to which the peptide is fused for display) [Phage-2974] 2.25

Follow-up entry: GDVYCKPAWMCDGF (cysteine pairing not given here; also: peptide displayed as fusion to phage pIII, Clonal phage of the peptide-180 optimisation library, tested as crude phage supernatant; not shown: bacteriophage pIII coat protein to which the peptide is fused for display) [Phage-2972] 2.25

DIPICRPQWMCIGF (cysteine pairing not given here; also: peptide displayed as fusion to phage pIII, Clonal phage of the peptide-180 optimisation library, tested as crude phage supernatant; not shown: bacteriophage pIII coat protein to which the peptide is fused for display) [Phage-2971] ? 2.25

Same for QTPVCIPEWMCTGF (cysteine pairing not given here; also: peptide displayed as fusion to phage pIII, Clonal phage of the peptide-180 optimisation library, tested as crude phage supernatant; not shown: bacteriophage pIII coat protein to which the peptide is fused for display) [Phage-2966] 2.26
